Assay: Stability in PBS pH 7.4 at 37° C.
Type: physicochemical
Conditions: pH 7.4, PBS pH 7.4, 37° C., read-out: T1/2 (min)
measuredMetric: half-life at 2.7 μg/ml

Would you kindly share the measured half-life at 2.7 μg/ml for `Cc1ncn(CCOC(=O)Cc2ccccc2Nc2c(Cl)cccc2Cl)c1C` ?
1080 min

---

Experiment: Solubility in 67 mM phosphate buffer pH 7.4 and in hydrochloride solutions at 37° C.
Type: physicochemical
Conditions: hydrochloride solution, 37 °C, pH 4.35, aqueous buffer, thermodynamic from solid, hydrochloride solution pH 4.35, 37° C., n = 6; read-out: S
Procedure: The determination of the solubility of a prodrug at different pH values of interest according to the present invention is carried by adding excess solid prodrug to a container containing a buffer solution with well-defined pH. […] In a similar manner the solubility of a prodrug in a tissue fluid including the synovial fluid can be determined. […]
measuredMetric: solubility thermodynamic (µg/mL)
Give bare numbers, in µg/mL.

Name the recorded solubility thermodynamic for Cc1ncn(CCOC(=O)Cc2ccccc2Nc2c(Cl)cccc2Cl)c1C [DPX-1-0023] .
3020

---

Assay: Stability in PBS pH 7.4 at 37° C.
Format: physicochemical
Details: pH 7.4, PBS pH 7.4, 37° C., read-out: T1/2 (days)
measuredMetric: half-life at 2.7 μg/ml

Returns the measured half-life at 2.7 μg/ml for the input compound. Input: `Cc1ncn(CCOC(=O)Cc2ccccc2Nc2c(Cl)cccc2Cl)c1C`
0.75 days

---

Assay: Stability in 80% (v/v) rat serum at 37° C.
Type: in vitro ADME
Details: pH 7.4, 80% rat serum
measuredMetric: half-life at 2.7 μg/ml
Answer with the value and then the unit.

What value of half-life at 2.7 μg/ml has been recorded for this entry: `Cc1ncn(CCOC(=O)Cc2ccccc2Nc2c(Cl)cccc2Cl)c1C`
6.1 min
